Origin of the recorded values: a collection of fitness landscapes (doi:10.1016/j.celrep.2020.107928)

Give measured one-hybrid fitness for binding parS DNA for each item. Keep answers brief.
B1: Caulobacter ParB omega fusion; a variant is named by its letters at X, in order, B8GW30 (parent)
chain: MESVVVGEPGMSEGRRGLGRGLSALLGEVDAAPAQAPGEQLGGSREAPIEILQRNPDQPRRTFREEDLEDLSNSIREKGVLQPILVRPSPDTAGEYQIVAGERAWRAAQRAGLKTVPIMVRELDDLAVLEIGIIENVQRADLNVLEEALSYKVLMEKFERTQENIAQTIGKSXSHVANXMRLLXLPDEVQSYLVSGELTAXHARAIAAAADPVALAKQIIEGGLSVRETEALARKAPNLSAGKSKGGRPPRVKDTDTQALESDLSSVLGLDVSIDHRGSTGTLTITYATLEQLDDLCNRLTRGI

Variants of: B1
test-name: one-hybrid fitness for binding parS DNA (scaled: cognate 1, non-cognate 0); higher = stronger binding
setup-conditions: with parS DNA site
Over roughly 81,000 sequences, “one-hybrid fitness for binding parS DNA” has its median near -0.17; the highest 2% begin near 0.51. Only a selection was taken, and the highest values are over-represented in it overall.

For every listed record, write down its one-hybrid fitness for binding parS DNA.
1. VHNS
2. LTFV
3. RYMH
4. PWQI
5. LTNS
6. WLDE

RESULT:
1. ≤ 0.2
2. ≤ 0.2
3. ≤ 0.2
4. ≤ 0.2
5. ≤ 0.2
6. ≤ 0.2
